Assay: self-splicing fitness, log relative to wild type (ln ratio); higher = more splicing; Tetrahymena group I intron in knt gene, E. coli kanamycin selection, DiMSum; sequences stand for … in CUCUCU…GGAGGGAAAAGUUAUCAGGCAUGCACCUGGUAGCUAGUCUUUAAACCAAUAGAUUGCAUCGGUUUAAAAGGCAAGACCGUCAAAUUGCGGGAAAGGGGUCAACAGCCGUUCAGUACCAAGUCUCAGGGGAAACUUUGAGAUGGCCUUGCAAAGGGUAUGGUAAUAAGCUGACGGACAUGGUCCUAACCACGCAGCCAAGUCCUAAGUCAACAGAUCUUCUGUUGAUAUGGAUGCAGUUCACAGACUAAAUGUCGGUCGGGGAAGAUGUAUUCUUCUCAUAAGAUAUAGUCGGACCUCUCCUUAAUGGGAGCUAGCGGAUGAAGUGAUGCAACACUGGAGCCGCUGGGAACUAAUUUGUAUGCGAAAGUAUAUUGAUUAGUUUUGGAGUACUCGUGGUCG;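 note: selection with 25 µg/mL kanamycin versus none on LB agar overnight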
Settings: 37 °C
Overview of recorded self-splicing fitness (ln) for various sequences
Answer with a number only.

Example entries begin here.
• UAAAAGCAAUAUUACGAUGG = -0.592
• AUCAAGCAAUAUUACGCUAC = -0.41

Enquiry: Query (sequence): CGCCAGCAAUAUUACGCUUC ; field requested: self-splicing fitness (ln)
Return: -3.27

Enquiry: Further, for CCUCAGCAAUAUUACGGACA ?
Return: -3.15

Enquiry: Further, for GCUAAGCAAUAUUACGAUCC ?
Return: -0.278

Enquiry: Further, for ACAUAGCAAUAUUACGACGG ?
Return: -0.32

Enquiry: Further, for AUUUAGCAAUAUUACGACUU ?
Return: 0.239

Enquiry: Further, for UGAUAGCAAUAUUACGGGUC ?
Return: -2.63

====

Assay: self-splicing fitness, log relative to wild type (ln ratio); higher = more splicing; Tetrahymena group I intron in knt gene, E. coli kanamycin selection, DiMSum; sequences stand for … in CUCUCU…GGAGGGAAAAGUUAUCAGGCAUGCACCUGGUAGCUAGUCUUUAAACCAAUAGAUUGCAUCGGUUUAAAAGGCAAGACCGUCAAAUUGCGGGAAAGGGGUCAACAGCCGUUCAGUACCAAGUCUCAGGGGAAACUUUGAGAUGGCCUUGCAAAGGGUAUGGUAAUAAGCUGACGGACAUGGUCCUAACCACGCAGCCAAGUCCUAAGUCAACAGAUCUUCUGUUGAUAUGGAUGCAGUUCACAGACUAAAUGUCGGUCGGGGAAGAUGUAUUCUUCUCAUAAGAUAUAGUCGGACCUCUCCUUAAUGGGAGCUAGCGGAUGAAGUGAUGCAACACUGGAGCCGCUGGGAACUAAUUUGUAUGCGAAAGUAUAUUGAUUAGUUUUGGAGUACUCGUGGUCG
Conditions: 30 °C
Returns one of condition met or condition not met; condition met when self-splicing fitness (ln) is >= -2.

Study these solved cases before continuing.
- GCGGAGCAAUAUUACGUUAA: condition not met
- CGCAAGCAAUAUUACGUCGU: condition not met
- AAAUAGCAAUAUUACGAAAU: condition not met
- CUGAAGCAAUAUUACGUCGG: condition not met
- UAUCAGCAAUAUUACGAAUA: condition met
- AUGGAGCAAUAUUACGGGUC: condition not met

Enquiry: Kindly determine if self-splicing fitness (ln) recorded for AUUCAGCAAUAUUACGAGAG is above or exactly -2.
Return: condition not met

Enquiry: Further, for UGCCAGCAAUAUUACGUCCA ?
Return: condition met

Enquiry: Further, for CGUAAGCAAUAUUACGGUUG ?
Return: condition met

Enquiry: Further, for GCAUAGCAAUAUUACGUCGA ?
Return: condition met
